Target: Glutamate [NMDA] receptor
Assay: The compound was tested for the inhibitory activity against N-methyl-D-aspartate glutamate receptor from mid-frontal region of human brain by measuring spermine-enhanced [3H]- MK-801 binding
Readout Name: pIC50
# pIC50 = -log10(concentration in molar units)

Structure	pIC50
CC[C@H](C)[C@H](NC(=O)[C@H](CC(C)C)NC(=O)[C@H](CCC(=O)O)NC(=O)[C@H](CCC(N)=O)NC(=O)[C@H](CC(N)=O)NC(=O)[C@H](CCCCN)NC(=O)[C@H](CCC(N)=O)NC(=O)[C@H](CC(C)C)NC(=O)[C@H](CCC(=O)O)NC(=O)[C@H](CCC(=O)O)NC(=O)[C@H](CCC(=O)O)NC(=O)CN)C(=O)N[C@@H](CCCN=C(N)N)C(=O)N[C@@H](CCC(=O)O)C(=O)N[C@@H](CCCCN)C(=O)N[C@@H](CO)C(=O)N[C@@H](CC(N)=O)C(N)=O	4.96

Query: What does the record list as pIC50 for CC[C@@H](C)[C@H](NC(=O)[C@H](CC(C)C)NC(=O)[C@H](CCC(=O)O)[C@H](CCC(N)=O)NC(=O)[C@H](CC(N)=O)NC(=O)[C@H](CCC(=O)O)NC(=O)[C@H](CCC(N)=O)NC(=O)[C@H](CC(C)C)NC(=O)[C@H](CCC(=O)O)NC(=O)[C@H](CCC(=O)O)NC(=O)[C@H](CCC(=O)O)NC(=O)CN)C(=O)N[C@@H](CCCN=C(N)N)C(=O)N[C@@H](CCC(=O)O)C(=O)N[C@@H](CCCCN)C(=O)N[C@@H](CO)C(=O)N[C@@H](CC(N)=O)C(N)=O ?
Reply: 7.16
